For each record, write down the corresponding fraction unbound.
Assay: in vitro
Details: human, plasma
Description: Fraction unbound in human plasma by equilibrium dialysis

Ask: Given CC(C)(C)NS(=O)(=O)c1ccc(-c2cc3c(N)ncc(C(=O)NCCN4CCOCC4)c3s2)cc1 , respond with its fraction unbound.
Reply: 0.101

Ask: Provide measured fraction unbound value, entry: CNC(=O)c1cnc(N)c2cc(-c3ccc(S(=O)(=O)NC(C)(C)C)cc3)sc12
Reply: 0.012

Ask: Recall and state the measured fraction unbound for COCCNC(=O)c1cnc(N)c2cc(-c3ccc(S(=O)(=O)NC(C)(C)C)cc3)sc12 .
Reply: 0.023

Ask: Using the record for CN(C)CCNC(=O)c1cnc(N)c2cc(-c3ccc(S(=O)(=O)NC(C)(C)C)cc3)sc12 , state its measured fraction unbound.
Reply: 0.064

====

Assign IC50 to each entry below.
Molecular target: Non-receptor tyrosine-protein kinase TYK2 (Homo sapiens)
Sequence (P29597 whole entry): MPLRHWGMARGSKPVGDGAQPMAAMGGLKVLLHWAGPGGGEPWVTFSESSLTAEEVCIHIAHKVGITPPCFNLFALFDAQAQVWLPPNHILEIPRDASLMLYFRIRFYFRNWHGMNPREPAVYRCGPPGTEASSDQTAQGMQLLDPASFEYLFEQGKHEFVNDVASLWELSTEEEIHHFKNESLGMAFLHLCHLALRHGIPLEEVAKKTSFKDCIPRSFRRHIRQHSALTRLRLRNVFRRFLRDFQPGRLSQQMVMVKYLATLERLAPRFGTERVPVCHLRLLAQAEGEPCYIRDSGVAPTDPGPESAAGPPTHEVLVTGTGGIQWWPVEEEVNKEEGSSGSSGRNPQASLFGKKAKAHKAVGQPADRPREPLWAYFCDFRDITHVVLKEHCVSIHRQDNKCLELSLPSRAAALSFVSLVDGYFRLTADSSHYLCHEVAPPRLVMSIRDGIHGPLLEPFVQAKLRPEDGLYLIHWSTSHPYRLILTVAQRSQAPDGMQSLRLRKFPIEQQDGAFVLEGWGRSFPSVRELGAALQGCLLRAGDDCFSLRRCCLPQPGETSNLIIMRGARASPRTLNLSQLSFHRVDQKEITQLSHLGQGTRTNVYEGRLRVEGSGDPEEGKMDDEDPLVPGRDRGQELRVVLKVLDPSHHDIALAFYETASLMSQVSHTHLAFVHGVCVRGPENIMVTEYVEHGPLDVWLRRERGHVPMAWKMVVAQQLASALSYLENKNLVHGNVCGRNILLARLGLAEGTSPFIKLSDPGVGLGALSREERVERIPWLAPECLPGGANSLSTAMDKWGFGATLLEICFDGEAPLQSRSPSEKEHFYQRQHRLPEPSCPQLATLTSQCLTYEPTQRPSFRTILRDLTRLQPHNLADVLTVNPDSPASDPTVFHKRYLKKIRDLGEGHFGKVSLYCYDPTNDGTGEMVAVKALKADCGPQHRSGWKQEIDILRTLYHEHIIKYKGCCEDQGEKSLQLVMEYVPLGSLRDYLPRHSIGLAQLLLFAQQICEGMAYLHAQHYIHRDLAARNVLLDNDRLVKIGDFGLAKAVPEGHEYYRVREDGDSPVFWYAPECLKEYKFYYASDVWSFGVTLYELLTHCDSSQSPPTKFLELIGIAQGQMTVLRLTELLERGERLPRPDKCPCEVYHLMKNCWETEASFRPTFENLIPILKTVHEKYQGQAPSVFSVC
Type: cell-based, Sf9
Report the value in nM with no unit label.

Ask: Hello, please tell me recorded IC50 for this one: CC(C)(C)NS(=O)(=O)c1ccc(-c2cc3c(N)ncc(C(=O)NCCCN4CCOCC4)c3s2)cc1
Reply: 1550

Ask: Note IC50 for the compound shown: CN(C)CCNC(=O)c1cnc(N)c2cc(-c3ccc(S(=O)(=O)NC(C)(C)C)cc3)sc12
Reply: 4100

Ask: Give IC50 for the following compound: Nc1ncc(C(=O)Nc2ccccc2)c2sc(-c3ccc(N4CCOCC4)cc3)cc12
Reply: 1990

Ask: Item Nc1ncc(C(=O)NCc2ccccc2)c2sc(-c3ccc(N4CCOCC4)cc3)cc12 : provide IC50
Reply: 2600

Ask: Input CCNC(=O)c1cnc(N)c2cc(-c3ccc(N4CCOCC4)cc3)sc12 , output reported IC50.
Reply: 1070

Ask: Note IC50 for the compound shown: CNC(=O)c1cnc(N)c2cc(-c3ccc(C(C)(C)C#N)cc3)sc12
Reply: 146

Ask: Return value of IC50 for input CC(C)(C)NC(=O)c1cnc(N)c2cc(-c3ccc(N4CCOCC4)cc3)sc12 , no commentary.
Reply: 6980

Ask: Quick one: give measured IC50 for CNC(=O)c1cnc(N)c2cc(-c3ccc(S(=O)(=O)NC(C)(C)C)cc3)sc12
Reply: 266

Ask: Supply measured IC50 of CNC(=O)c1cnc(N)c2cc(-c3ccc(N4CCOCC4)cc3)sc12 in your reply.
Reply: 1330

Ask: Please give the documented IC50 of COCCNC(=O)c1cnc(N)c2cc(-c3ccc(S(=O)(=O)NC(C)(C)C)cc3)sc12
Reply: 1480

====

Biological target: Tyrosine-protein kinase JAK3 (Homo sapiens, UniProt P52333)
Sequence (P52333 whole entry): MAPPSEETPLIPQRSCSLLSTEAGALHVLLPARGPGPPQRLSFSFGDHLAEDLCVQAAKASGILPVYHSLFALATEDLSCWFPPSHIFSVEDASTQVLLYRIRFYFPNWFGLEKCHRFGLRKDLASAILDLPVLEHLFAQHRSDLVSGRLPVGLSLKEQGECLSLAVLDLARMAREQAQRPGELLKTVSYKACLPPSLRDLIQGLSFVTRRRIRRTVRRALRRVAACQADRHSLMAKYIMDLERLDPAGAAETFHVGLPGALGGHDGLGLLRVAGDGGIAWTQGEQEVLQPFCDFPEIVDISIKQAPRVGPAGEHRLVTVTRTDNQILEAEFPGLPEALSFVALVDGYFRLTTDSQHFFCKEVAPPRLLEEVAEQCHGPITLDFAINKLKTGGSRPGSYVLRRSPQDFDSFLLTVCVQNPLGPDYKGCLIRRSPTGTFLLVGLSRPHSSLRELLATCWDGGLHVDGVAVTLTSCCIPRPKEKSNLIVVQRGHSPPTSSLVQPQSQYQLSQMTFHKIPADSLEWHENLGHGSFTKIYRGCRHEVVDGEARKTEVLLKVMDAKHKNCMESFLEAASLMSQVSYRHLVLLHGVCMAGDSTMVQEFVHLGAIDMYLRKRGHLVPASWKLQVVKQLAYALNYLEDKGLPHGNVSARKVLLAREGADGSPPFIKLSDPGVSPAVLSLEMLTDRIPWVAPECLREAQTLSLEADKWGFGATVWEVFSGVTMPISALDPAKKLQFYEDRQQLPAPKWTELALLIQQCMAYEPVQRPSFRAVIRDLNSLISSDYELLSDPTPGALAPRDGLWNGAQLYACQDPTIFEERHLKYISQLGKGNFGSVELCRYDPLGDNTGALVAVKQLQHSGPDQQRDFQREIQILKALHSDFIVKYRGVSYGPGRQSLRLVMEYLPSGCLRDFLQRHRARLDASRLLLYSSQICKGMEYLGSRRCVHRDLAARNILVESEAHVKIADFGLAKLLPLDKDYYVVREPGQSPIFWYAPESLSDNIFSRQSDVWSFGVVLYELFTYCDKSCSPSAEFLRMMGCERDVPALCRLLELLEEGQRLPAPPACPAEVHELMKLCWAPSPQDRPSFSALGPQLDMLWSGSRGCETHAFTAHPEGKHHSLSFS
Type: cell-based, Sf9
recorded-metric: IC50

Ask: Return value of IC50 for input CNC(=O)c1cnc(N)c2cc(-c3ccc(OC(F)(F)F)cc3)sc12 , no commentary.
Reply: 365 nM

Ask: State its IC50 for this compound: CC(C)(C)NS(=O)(=O)c1ccc(-c2cc3c(N)ncc(C(=O)NCCCN4CCOCC4)c3s2)cc1
Reply: 645 nM

Ask: Give IC50 for the following compound: CC(C)(C)NS(=O)(=O)c1ccc(-c2cc3c(N)ncc(C(=O)NCCN4CCCCC4)c3s2)cc1
Reply: 2380 nM

Ask: Give recorded IC50. COCCNC(=O)c1cnc(N)c2cc(-c3ccc(S(=O)(=O)NC(C)(C)C)cc3)sc12
Reply: 1280 nM

Ask: Provide only the value of recorded IC50 for CNC(=O)c1cnc(N)c2cc(-c3ccc(C(C)(C)C)cc3)sc12
Reply: 188 nM

Ask: Tell me its IC50 given CN(C)CCNC(=O)c1cnc(N)c2cc(-c3ccc(S(=O)(=O)NC(C)(C)C)cc3)sc12 as the entry.
Reply: 3330 nM

Ask: Tell me measured IC50 for CNC(=O)c1cnc(N)c2cc(-c3ccc(C)cc3)sc12 please.
Reply: 545 nM

Ask: Indicate the recorded IC50 value for this compound: Nc1ncc(C(=O)NCc2ccccc2)c2sc(-c3ccc(N4CCOCC4)cc3)cc12
Reply: > 125000 nM

Ask: Return the recorded IC50 value; entry: CC(C)(C)NC(=O)c1cnc(N)c2cc(-c3ccc(N4CCOCC4)cc3)sc12
Reply: 10300 nM

====

Target: Tyrosine-protein kinase JAK1 (Homo sapiens, UniProt P23458)
Sequence (P23458 whole entry): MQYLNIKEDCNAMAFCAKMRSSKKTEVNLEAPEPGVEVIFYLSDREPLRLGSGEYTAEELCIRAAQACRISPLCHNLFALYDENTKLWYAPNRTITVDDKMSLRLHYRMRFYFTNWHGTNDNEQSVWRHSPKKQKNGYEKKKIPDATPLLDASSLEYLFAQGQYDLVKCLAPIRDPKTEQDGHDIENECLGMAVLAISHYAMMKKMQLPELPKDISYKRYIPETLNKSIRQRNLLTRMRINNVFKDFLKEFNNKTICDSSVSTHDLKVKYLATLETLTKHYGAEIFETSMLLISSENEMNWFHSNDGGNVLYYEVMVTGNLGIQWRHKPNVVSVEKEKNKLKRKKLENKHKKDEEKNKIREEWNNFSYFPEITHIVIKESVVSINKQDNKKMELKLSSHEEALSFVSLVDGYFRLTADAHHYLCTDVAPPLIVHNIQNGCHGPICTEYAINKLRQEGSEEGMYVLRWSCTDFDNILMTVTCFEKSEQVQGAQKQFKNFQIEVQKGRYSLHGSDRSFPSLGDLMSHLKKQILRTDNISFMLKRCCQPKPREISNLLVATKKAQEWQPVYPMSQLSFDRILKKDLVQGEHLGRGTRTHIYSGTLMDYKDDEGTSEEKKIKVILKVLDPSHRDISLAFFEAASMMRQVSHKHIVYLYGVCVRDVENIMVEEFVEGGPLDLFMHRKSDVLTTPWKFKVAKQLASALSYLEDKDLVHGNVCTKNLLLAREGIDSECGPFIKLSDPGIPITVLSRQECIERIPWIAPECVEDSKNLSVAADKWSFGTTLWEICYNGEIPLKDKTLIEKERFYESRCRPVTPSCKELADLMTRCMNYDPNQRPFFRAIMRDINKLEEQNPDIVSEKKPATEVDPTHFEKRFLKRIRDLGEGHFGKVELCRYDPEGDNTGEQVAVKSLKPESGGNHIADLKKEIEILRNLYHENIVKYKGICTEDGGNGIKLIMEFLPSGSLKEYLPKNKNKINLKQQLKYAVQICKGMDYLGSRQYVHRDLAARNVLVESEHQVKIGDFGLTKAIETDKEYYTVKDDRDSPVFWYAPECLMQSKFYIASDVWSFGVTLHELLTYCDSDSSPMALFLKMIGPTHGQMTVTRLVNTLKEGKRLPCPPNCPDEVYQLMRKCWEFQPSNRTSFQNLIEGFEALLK
Format: cell-based, Sf9
recorded-metric: IC50 (nM)
Give a bare numeral; the unit nM is implied.

Ask: Item Nc1ncc(C(=O)NCc2ccccc2)c2sc(-c3ccc(N4CCOCC4)cc3)cc12 : provide IC50
Reply: 307

Ask: Determine its reported IC50: COCCNC(=O)c1cnc(N)c2cc(-c3ccc(S(=O)(=O)NC(C)(C)C)cc3)sc12
Reply: 129

Ask: Answer with the recorded IC50 for the compound listed here: CNC(=O)c1cnc(N)c2cc(-c3ccc(C(C)(C)C#N)cc3)sc12
Reply: 36

Ask: Indicate the recorded IC50 value for this compound: CC(C)(C)NS(=O)(=O)c1ccc(-c2cc3c(N)ncc(C(=O)NCCCN4CCOCC4)c3s2)cc1
Reply: 206

====

Target: Tyrosine-protein kinase JAK1 (Homo sapiens, UniProt P23458)
Type: cell-based, Sf9
pIC50: −log10 of the molar value.
Mark label 1 for reported pIC50 of 7 or greater; mark label 0 for anything smaller.

Ask: Is pIC50 at least 7? Consider CN(C)CCNC(=O)c1cnc(N)c2cc(-c3ccc(S(=O)(=O)NC(C)(C)C)cc3)sc12
Reply: label 0

Ask: In plain terms: is recorded pIC50 at least 7 for NC(=O)c1cnc(N)c2cc(-c3ccc(N4CCOCC4)cc3)sc12 ?
Reply: label 1

Ask: Has CNC(=O)c1cnc(N)c2cc(-c3ccccc3)sc12 a recorded pIC50 greater than or equal to 7?
Reply: label 0

====

Biological target: UniProtKB P23458
Type: cell-based, BaF3
recorded-metric: IC50

Ask: State measured IC50 of the molecule CNC(=O)c1cnc(N)c2cc(-c3ccc(C)cc3)sc12 with UniProtKB P23458.
Reply: > 25 µM

Ask: Give the observed IC50 of CN(C)CCNC(=O)c1cnc(N)c2cc(-c3ccc(S(=O)(=O)NC(C)(C)C)cc3)sc12 for UniProtKB P23458.
Reply: > 25 µM

Ask: Report the value of IC50 obtained on UniProtKB P23458 for CC(C)(C)NS(=O)(=O)c1ccc(-c2cc3c(N)ncc(C(=O)NCCN4CCCCC4)c3s2)cc1 .
Reply: > 25 µM
